Kindly supply the reported activation values for the records listed here.
# test_system: Leucyl-cystinyl aminopeptidase (Mus musculus) (UniProt Q8C129)
# Sequence (Q8C129 whole entry, looked up): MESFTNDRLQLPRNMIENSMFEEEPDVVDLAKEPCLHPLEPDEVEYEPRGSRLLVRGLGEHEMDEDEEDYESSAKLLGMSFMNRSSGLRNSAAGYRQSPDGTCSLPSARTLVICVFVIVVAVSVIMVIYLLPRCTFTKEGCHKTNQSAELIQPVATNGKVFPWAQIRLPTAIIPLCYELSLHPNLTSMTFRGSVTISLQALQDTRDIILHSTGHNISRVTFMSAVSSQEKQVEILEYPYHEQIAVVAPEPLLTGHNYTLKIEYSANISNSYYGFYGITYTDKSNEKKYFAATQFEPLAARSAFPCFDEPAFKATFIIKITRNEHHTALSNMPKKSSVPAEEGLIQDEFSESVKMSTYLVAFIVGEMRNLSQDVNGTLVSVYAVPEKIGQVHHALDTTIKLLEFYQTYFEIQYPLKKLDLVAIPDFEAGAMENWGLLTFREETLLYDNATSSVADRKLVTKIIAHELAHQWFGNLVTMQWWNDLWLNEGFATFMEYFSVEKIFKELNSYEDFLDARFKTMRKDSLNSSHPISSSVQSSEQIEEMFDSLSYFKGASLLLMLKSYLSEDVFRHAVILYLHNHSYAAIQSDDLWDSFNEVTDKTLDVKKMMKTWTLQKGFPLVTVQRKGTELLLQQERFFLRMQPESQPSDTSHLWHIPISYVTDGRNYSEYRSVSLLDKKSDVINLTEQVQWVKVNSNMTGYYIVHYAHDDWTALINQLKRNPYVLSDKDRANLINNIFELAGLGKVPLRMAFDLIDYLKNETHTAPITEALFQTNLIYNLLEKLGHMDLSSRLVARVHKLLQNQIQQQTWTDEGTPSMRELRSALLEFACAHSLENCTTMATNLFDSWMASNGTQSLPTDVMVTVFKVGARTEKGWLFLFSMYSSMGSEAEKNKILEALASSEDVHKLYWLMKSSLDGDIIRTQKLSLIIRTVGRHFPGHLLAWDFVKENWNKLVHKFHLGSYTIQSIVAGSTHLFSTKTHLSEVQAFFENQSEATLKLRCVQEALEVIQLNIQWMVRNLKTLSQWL
# method_description: IRAP activators, dose response, selectivity assay for ERAP1 modulator project, biochemical, Leu-AMC fluorescence, cherry-picked samples (AID 743339)
# assay_setup: purified IRAP, Leu-AMC cleavage fluorescence, 1 h; at 11 µM (top of the series)
Active and inactive are the calls of the source.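 The calls were made as follows: active = activation curve crossing 200% at or below the highest valid dose tested for that sample; inconclusive = flat curve with activation between 30 and 70%, or poor fit; inactive = the rest, including signal falling instead of rising.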

Solved cases below.
chemical_string: C[C@@H]1CCCCO[C@@H](CN(C)S(C)(=O)=O)[C@@H](C)CN([C@@H](C)CO)C(=O)c2cc(NS(=O)(=O)c3ccc(Cl)cc3)ccc2O1
test_system: Leucyl-cystinyl aminopeptidase (Mus musculus) (UniProt Q8C129)
activation: -13.3% (inactive)
//
chemical_string: C[C@@H]1CCCCO[C@H](CN(C)Cc2ccc(C(=O)O)cc2)[C@H](C)CN([C@@H](C)CO)C(=O)c2cc(NC(=O)Nc3ccc(C(F)(F)F)cc3)ccc2O1
test_system: Leucyl-cystinyl aminopeptidase (Mus musculus) (UniProt Q8C129)
activation: 11.1% (inactive)
//
chemical_string: COc1ccc(NC(=O)Nc2cccc3c2O[C@H](CN(C)Cc2ccc(C(=O)O)cc2)[C@H](C)CN([C@H](C)CO)C3=O)cc1
test_system: Leucyl-cystinyl aminopeptidase (Mus musculus) (UniProt Q8C129)
activation: 8.21% (inactive)

Would you mind listing activation for each of the following molecules?
1. COc1ccc(CN(C)C[C@H]2OCCCC[C@@H](C)Oc3ccc(NS(=O)(=O)c4cccs4)cc3C(=O)N([C@@H](C)CO)C[C@@H]2C)cc1
2. COc1ccc(NC(=O)Nc2ccc3c(c2)C(=O)N([C@H](C)CO)C[C@@H](C)[C@H](CN(C)Cc2ccc(C(=O)O)cc2)OCCCC[C@@H](C)O3)cc1
3. CC(=O)N1CCN(C(=O)C2(NC(=O)Nc3ccc(C)cc3)CCCCC2)CC1
4. C[C@H]1CN([C@@H](C)CO)C(=O)c2cccc(NC(=O)Nc3ccc(F)cc3)c2O[C@@H]1CN(C)C(=O)Nc1ccc2c(c1)OCO2
5. COc1ccc(CN(C)C[C@@H]2OCCCC[C@H](C)Oc3ccc(NS(=O)(=O)c4cccs4)cc3C(=O)N([C@H](C)CO)C[C@@H]2C)cc1
6. O=C(C[C@@H]1CC[C@@H]2[C@H](COC[C@H](O)CN2C(=O)Nc2cccc(Cl)c2)O1)N1CCCCC1
7. Cc1noc(C)c1NC(=O)N(C)C[C@@H]1Oc2c(NC(=O)Nc3ccccc3)cccc2C(=O)N([C@H](C)CO)C[C@@H]1C

-- reply
24.3% (inactive)
10% (inactive)
10% (inactive)
21.6% (inactive)
-13.3% (inactive)
7.14% (inactive)
12.9% (inactive)
